test: Microsomal stability; assay type: in vitro ADME; settings: rat, microsomes
measurementLabel: half-life

The recorded half-life for O=C(O)c1cc(NC(=O)C2CC2c2ccccc2)ccc1O (stereo not shown) [ACA-14] is > 3 h

###

tested on: MDR1 (P-gp); assay: Permeability and efflux in MDR1-MDCK cell monolayer system; format: in vitro ADME; conditions: dog, MDCK-MDR1, Pexact efflux ratio
measurementLabel: efflux ratio
Please state the value as a number alone, without comment.

Record excerpt, results attached:
CC(C)CN(C[C@@H](O)[C@H](Cc1ccccc1)NC(=O)O[C@H]1CCOC1)S(=O)(=O)c1ccc(N)cc1 [amprenavir]    16.9
O=C(O)c1cc(NC(=O)C2CC2c2ccccc2)ccc1O (stereo not drawn) [ACA-14]    0.72

Please look at the following compound next.
The recorded efflux ratio for CC(C)NCC(O)COc1cccc2ccccc12 (stereo not drawn) [propranolol] is 0.52

###

target: KRAS(WT) (Homo sapiens, UniProt P01116); experiment: Intrinsic GDP/GTP nucleotide exchange
measurementLabel: pEC50
Please note pEC50 is a logarithmic value: minus log10 of concentration in mol/L. Answer with that number alone.

The recorded pEC50 for O=C(O)c1cc(NC(=O)C2CC2c2ccccc2)ccc1O (stereo not shown) is 5.42

###

target: GDP-KRAS(WT) (Homo sapiens)
measurementLabel: pKd
Please note pKd is a logarithmic value: minus log10 of concentration in mol/L. Answer with that number alone.

GDP-KRAS(WT) (Homo sapiens) assay, molecule O=C(O)c1cc(NC(=O)C2CC2c2ccccc2)ccc1O (stereo not shown) [ACA-14] , recorded pKd = 5.96

###

biological target: KRAS(WT) (Homo sapiens)
measurementLabel: Kd (µM)
Provide only the numeric value, understood in µM.

KRAS(WT) (Homo sapiens) assay, compound O=C(O)c1cc(NC(=O)C2CC2c2ccccc2)ccc1O (stereo not shown) [ACA-14] , recorded Kd = 4.5

###

biological target: GDP-KRAS(G12C) (Homo sapiens, UniProt P01116, G12C); assay: Isothermal titration calorimetry
measurementLabel: pKd
Please note pKd is a logarithmic value: minus log10 of concentration in mol/L. Answer with that number alone.

GDP-KRAS(G12C) (Homo sapiens, UniProt P01116, G12C) assay, compound O=C(O)c1cc(NC(=O)C2CC2c2ccccc2)ccc1O (stereo not shown) , recorded pKd = 4.93

###

molecular target: KRAS(G12D) (Homo sapiens, UniProt P01116, G12D); test: Microscale thermophoresis; details: Kd from MST, GDP-bound KRAS(G12D)
Sequence (P01116 1-166 isoform P01116-2 G12D): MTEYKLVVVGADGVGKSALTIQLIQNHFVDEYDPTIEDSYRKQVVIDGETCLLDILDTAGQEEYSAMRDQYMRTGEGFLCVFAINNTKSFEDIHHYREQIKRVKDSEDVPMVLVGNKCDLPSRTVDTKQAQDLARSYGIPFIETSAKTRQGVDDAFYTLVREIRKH
measurementLabel: Kd

KRAS(G12D) (Homo sapiens, UniProt P01116, G12D) assay, molecule O=C(O)c1cc(NC(=O)C2CC2c2ccccc2)ccc1O (stereo not shown) , recorded Kd = > 50 µM

###

test system: MDR1; experiment: Permeability and efflux in MDR1-MDCK cell monolayer system; assay type: in vitro ADME; details: dog, MDCK-MDR1
measurementLabel: Papp B→A (×10⁻⁶ cm/s)
Provide only the numeric value, understood in ×10⁻⁶ cm/s.

O=C(O)c1cc(NC(=O)C2CC2c2ccccc2)ccc1O (stereo not drawn) [ACA-14]    3.51
CC(C)NCC(O)COc1cccc2ccccc12 (stereo not drawn) [propranolol]    15

Please look at the following compound next.
The recorded Papp B→A for CC(C)CN(C[C@@H](O)[C@H](Cc1ccccc1)NC(=O)O[C@H]1CCOC1)S(=O)(=O)c1ccc(N)cc1 [amprenavir] is 17.1
